Entry source: PubChem BioAssay (EPA / NIEHS)

- target of assay: sheep Cyclooxygenase-2 (Cox2), PTGS2 (gene 443460)
- protocol text: NVS_ENZ_oCOX2: NovaScreen (NVS) Enzymatic Assay for sheep Cyclooxygenase-2 (Cox2) (AID 2283231)
Results filed as inconclusive are left out. The source made the active and inactive calls. Rule for the calls: active = hit-call score of the fitted dose curve at least 0.9, where 1 is the maximum; inconclusive = response in the unintended direction; inactive = score below 0.9.
quantity name: AC50

{"compound": "CC(C)(OO)c1ccccc1", "result": "6.28 µM (active)"}
{"compound": "CC(C)(C)CC(C)(C)c1ccc(O)cc1", "result": "inactive"}
{"compound": "CC12CC1(C)C(=O)N(c1cc(Cl)cc(Cl)c1)C2=O (stereo unspecified)", "result": "3.77 µM (active)"}
{"compound": "COc1cc(OC)nc(NC(=O)NS(=O)(=O)c2ncccc2C(=O)N(C)C)n1", "result": "inactive"}
{"compound": "CC(C)(C)c1cc(O)ccc1O", "result": "6.85 µM (active)"}
{"compound": "O=c1[nH]c(=O)[nH]c(=O)[nH]1", "result": "inactive"}

###

- Read-out: Monokine induced gamma interferon (MIG), CXCL9 (gene 4283)
- protocol text: BSK_3C_MIG: BioMAP Diversity Plus: 3C Assay for Monokine induced gamma interferon (MIG) Biomarker Activity (AID 2283021);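 for AC50: MIG protein level measured by immunoassay in the treated endothelial cultures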
- experimental setup: primary human endothelial cells (HUVEC); actives raise or lower the signal
The source made the active and inactive calls. Rule for the calls: active = hit-call score of the fitted dose curve at least 0.9, where 1 is the maximum; inactive = score below 0.9.
quantity name: AC50

{"compound": "CCN1CCC2(CC1)COc1cc3c(cc12)N(C(=O)c1ccc(-c2ccc(-c4nnc(C)o4)cc2C)cc1)CC3", "result": "32.3 µM (active)"}
{"compound": "OCc1ccco1", "result": "inactive"}
{"compound": "CCOP(=S)(OCC)SCCS(=O)(=O)CC", "result": "inactive"}
{"compound": "ClC(Cl)=C(Cl)C(Cl)=C(Cl)Cl", "result": "36.5 µM (active)"}
{"compound": "CCOP(=S)(OCC)Oc1ccc(S(C)=O)cc1 (stereo not given)", "result": "inactive"}
{"compound": "CC12CC1(C)C(=O)N(c1cc(Cl)cc(Cl)c1)C2=O (stereo not given)", "result": "inactive"}
{"compound": "CC(C)(c1ccccc1)c1ccc(O)c(C(C)(C)c2ccccc2)c1", "result": "10.5 µM (active)"}
{"compound": "CC(=O)C(Cl)C(=O)N(C)C (stereo not given)", "result": "inactive"}
{"compound": "C[C@@H]1C[C@@H]([C@H](O)CC2CC(=O)NC(=O)C2)C(=O)[C@@H](C)C1", "result": "20.1 µM (active)"}
{"compound": "O=C1C2(Cl)C3(Cl)C4(Cl)C(Cl)(Cl)C5(Cl)C3(Cl)C1(Cl)C5(Cl)C24Cl (stereo not given)", "result": "11.4 µM (active)"}
{"compound": "O=c1[nH]c(=O)[nH]c(=O)[nH]1", "result": "inactive"}
{"compound": "CCOP(=S)(OCC)SCSP(=S)(OCC)OCC", "result": "inactive"}
{"compound": "Oc1c(I)cc(I)cc1I", "result": "34.9 µM (active)"}
{"compound": "O=[N+]([O-])c1ccc(O)c([N+](=O)[O-])c1", "result": "inactive"}
{"compound": "COP(=S)(OC)Oc1ccc(Sc2ccc(OP(=S)(OC)OC)cc2)cc1", "result": "inactive"}
{"compound": "NC(=O)O", "result": "inactive"}
{"compound": "O=[N+]([O-])c1ccc2c3c(cccc13)CC2", "result": "inactive"}
{"compound": "Cc1ccccc1N", "result": "inactive"}
{"compound": "CCOP(=S)(OCC)Oc1nc(Cl)c(Cl)cc1Cl", "result": "inactive"}
{"compound": "C[C@]12CCC(=O)C[C@@H]1CC[C@@H]1[C@@H]2CC[C@]2(C)[C@@H](O)CC[C@@H]12", "result": "inactive"}
{"compound": "O=C(Nc1ccc2[nH]ccc2c1)c1cc2cc(F)ccc2n1Cc1cccc(F)c1", "result": "10.4 µM (active)"}
{"compound": "COc1cc(OC)nc(NC(=O)NS(=O)(=O)c2ncccc2C(=O)N(C)C)n1", "result": "inactive"}
{"compound": "O=Cc1cccc(Oc2ccccc2)c1", "result": "inactive"}
{"compound": "CC(C)(OO)c1ccccc1", "result": "inactive"}
{"compound": "ClC1=C(Cl)[C@]2(Cl)[C@H]3[C@H]([C@H]4C=C[C@H]3C4)[C@@]1(Cl)C2(Cl)Cl", "result": "inactive"}

###

- Read-out: C-C motif chemokine 2 (Homo sapiens)
- protocol text: BSK_KF3CT_MCP1: BioMAP Diversity Plus: KF3CT Assay for Monocyte Chemoattractant Protein 1 (MCP1/CCL2) Biomarker Activity (AID 2283073)
- experimental setup: primary human keratinocytes with fibroblasts; actives raise or lower the signal
- Experimental: BSK_KF3CT is a cell-based, multiplexed-readout assay that uses keratinocytes and foreskin fibroblasts, a human skin primary cell co-culture, with measurements taken at 24 hours after chemical dosing in a 96-well plate.BSK_KF3CT_MCP1 is an assay component measured in the BSK_KF3CT assay. It measures MCP-1 antibody related to regulation of gene expression using ELISA technology.Data from the assay component BSK_KF3CT_MCP1 was analyzed into 1 assay endpoint. […]
Activity calls are given as the source filed them. How the source made its calls: active means hit-call score of the fitted dose curve at least 0.9, where 1 is the maximum; inactive means score below 0.9.
Outcome codes: active, inactive

{"molecule": "CC(C)(C)CC(C)(C)c1ccc(O)cc1", "discrete label": "active"}
{"molecule": "COc1cc(-c2ccc(N)c(OC)c2)ccc1N", "discrete label": "inactive"}
{"molecule": "CC(=O)C(Cl)C(=O)N(C)C (configuration not stated)", "discrete label": "inactive"}
{"molecule": "O=C(O)C(F)(F)C(F)(F)C(F)(F)C(F)(F)C(F)(F)C(F)(F)F", "discrete label": "inactive"}
{"molecule": "CCC(=O)C(CC(C)N(C)C)(c1ccccc1)c1ccccc1 (configuration not stated)", "discrete label": "inactive"}
{"molecule": "NC(=O)O", "discrete label": "inactive"}
{"molecule": "O=C(OC1CCCCC1)c1ccccc1C(=O)OC1CCCCC1", "discrete label": "inactive"}

###

- Read-out: Interferon-gamma inducible Protein 10 (IP10), CXCL10 (gene 3627)
- protocol text: BSK_BE3C_IP10: BioMAP Diversity Plus: BE3C Assay for Interferon-gamma inducible Protein 10 (IP10) Biomarker Activity (AID 2283034)
- experimental setup: primary human bronchial epithelial cells; actives raise or lower the signal
Active and inactive are the calls of the source. The calls were made as follows: active = hit-call score of the fitted dose curve at least 0.9, where 1 is the maximum; inactive = score below 0.9.
Outcome codes: active, inactive

{"molecule": "O=S(=O)(c1ccc(Cl)cc1)c1ccc(Cl)cc1", "discrete label": "inactive"}
{"molecule": "Nc1ncc([N+](=O)[O-])s1", "discrete label": "inactive"}
{"molecule": "C[C@@H]1C[C@@H]([C@H](O)CC2CC(=O)NC(=O)C2)C(=O)[C@@H](C)C1", "discrete label": "active"}
{"molecule": "NC(=O)O", "discrete label": "inactive"}
{"molecule": "COc1cc(-c2ccc(N)c(OC)c2)ccc1N", "discrete label": "inactive"}
{"molecule": "O=c1[nH]c(=O)[nH]c(=O)[nH]1", "discrete label": "inactive"}
{"molecule": "CCNc1nc(NC(C)(C)C)nc(SC)n1", "discrete label": "inactive"}
{"molecule": "Oc1c(I)cc(I)cc1I", "discrete label": "active"}
{"molecule": "Nc1cccc2ccccc12", "discrete label": "active"}
{"molecule": "OCc1ccco1", "discrete label": "inactive"}
{"molecule": "CC(C)(OO)c1ccccc1", "discrete label": "inactive"}
{"molecule": "CCC(=O)C(CC(C)N(C)C)(c1ccccc1)c1ccccc1 (centres undefined)", "discrete label": "inactive"}
{"molecule": "CN(C)N=O", "discrete label": "inactive"}
{"molecule": "CCCCCCCCc1ccc(O)cc1", "discrete label": "active"}
{"molecule": "O=C(OC1CCCCC1)c1ccccc1C(=O)OC1CCCCC1", "discrete label": "active"}
{"molecule": "ClC(Cl)=C(Cl)C(Cl)=C(Cl)Cl", "discrete label": "active"}
{"molecule": "COC[C@H](C)N(C(=O)CCl)c1c(C)csc1C", "discrete label": "inactive"}
{"molecule": "CC(=O)OC(c1ccccc1)C(Cl)(Cl)Cl (centres undefined)", "discrete label": "inactive"}
{"molecule": "O=Cc1cccc(Oc2ccccc2)c1", "discrete label": "inactive"}
{"molecule": "ClC1(Cl)C2(Cl)C3(Cl)C4(Cl)C(Cl)(Cl)C5(Cl)C3(Cl)C1(Cl)C5(Cl)C24Cl (centres undefined)", "discrete label": "inactive"}
{"molecule": "O=C(Nc1ccc2[nH]ccc2c1)c1cc2cc(F)ccc2n1Cc1cccc(F)c1", "discrete label": "active"}
{"molecule": "Nc1ccc(-c2ccc(N)c(Cl)c2)cc1Cl", "discrete label": "inactive"}
{"molecule": "CCOP(=S)(OCC)Oc1nc(Cl)c(Cl)cc1Cl", "discrete label": "inactive"}
{"molecule": "CC(=O)C(Cl)C(=O)N(C)C (centres undefined)", "discrete label": "active"}
{"molecule": "BrCCBr", "discrete label": "inactive"}
{"molecule": "COc1cc(OC)nc(NC(=O)NS(=O)(=O)c2ncccc2C(=O)N(C)C)n1", "discrete label": "inactive"}
{"molecule": "Oc1cccc2cccnc12", "discrete label": "active"}
{"molecule": "O=C(O)CCC(F)(C(F)(F)F)C(F)(F)F", "discrete label": "inactive"}
{"molecule": "CCOC(=O)/C=C(C)/C=C/C[C@@H](C)CCCC(C)C", "discrete label": "active"}
